Target: T1, Recombinant human IGFBP3 (human, UniProt P17936 28-291)
T1 construct: also called rhIGFBP3; hIGFBP3
T1 sequence (P17936 28-291 limits assumed): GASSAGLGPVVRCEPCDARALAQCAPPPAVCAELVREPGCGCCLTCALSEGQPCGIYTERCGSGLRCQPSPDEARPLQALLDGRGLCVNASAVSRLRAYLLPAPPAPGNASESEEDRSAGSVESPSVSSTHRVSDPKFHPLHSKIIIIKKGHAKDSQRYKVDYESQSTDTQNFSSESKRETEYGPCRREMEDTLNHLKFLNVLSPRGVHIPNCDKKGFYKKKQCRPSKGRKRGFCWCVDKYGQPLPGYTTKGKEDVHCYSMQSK
Test: Octet BLI; mAb captured via Fc on anti-mouse/anti-human IgG Fc biosensor, human IGFBP3 at 150 nM
Measured pKd, listed per entry.
Units for pKd: none; it is -log10 of a concentration expressed in mol/L.

# BINDER, pKd
records = [
    ("E14 (antibody, V domains shown, From Trianni Mouse hybridomas: chimeric mAb with human VH and VK and mouse constant domains; also called anti-IGFBP3 mAb E14) VH: QVQLVQSGAEVKKPGASVKVSCKASGYTFSNYGISWVRQAPGQGLEWMGWINTYNGNTNYAQKLQGRVTMTTDTSTSTAYMALRGLRSDDTAVYYCARDRGYSSSPYYYYYGMDVWGQGTTVTVSS VL: DIQMTQSPSSLSASIGDRVTITCRASQGISNYLAWFQQKPGKAPKSLIYAASSLQSGVPSKFSGSGSGTDFTLTISSLQPEDFATYYCQQYNSYPFTFGPGTKVDIK", 9.07),
]

Now consider a different binder.
(Q) For the binder E19 (antibody, V domains shown, From Trianni Mouse hybridomas: chimeric mAb with human VH and VK and mouse constant domains; also called anti-IGFBP3 mAb E19) VH: QVQLVESGGGVVQPGRSLRLSCAASGFTFSSYGMHWVRQAPGKGLEWVAVISYDGSNKNYVDSVKGRFTISRDNSKNTLYLQMNSLRAEDTAVYYCARGGEYFYYYGLDVWGQGTTVTVSS VL: AIQLTQSPSSLSASVGDRVTITCRAGQGISSALAWYQQKPGKAPKILIYDASSLESGVPSRFSGSGSGTDFTLTISSLQPEDFATYYCQQFNNYPSTFGQGTKLEIK , report pKd.
(A) 9.16
